experiment: Human HepG2 cell viability assay in 384 well format; assay type: toxicity, cell-based; parameters: dose 125 nL, time 70.5 hour; concentration not given beside the values; details: HepG2 cells, read-out: Inhibition
cytotoxicity at 70.5 h values for the molecules below.
Assay readout: cytotoxicity at 70.5 h (%)

COc1c(NC(=O)N(C)CCOc2ccccc2)c(C)nn1C
15.1
CC(C)(C)c1noc(CN2CCCC(CNS(N)(=O)=O)C2)n1 (centres undefined)
-2.1
COc1ccc(CN(C)[C@@H]2CN(C(=O)c3ccccc3)C[C@H]2O)cc1
-2.29
COCC(O)CN1CC(C)(C)CN(C(=O)CCc2ccccc2)CC1=O (centres undefined)
0.943
Cc1nc(CCNC(=O)c2cc(C(C)C)nn2C)sc1C
-10.1
CCn1cc(C(=O)NCCN2CCCc3ccccc32)c(C)n1
-0.0816
Cc1nc2c(c(NC3CC3)n1)CCN(C(=O)C(C)(C)O)CC2
2.5
CCc1nnc2n1CCN(Cc1ncc(-c3ccc(F)cc3)o1)C2
-6.74
Cc1cncc(C2CCN(C(=O)CCc3ccnn3C)CC2)n1
23.6
Cc1ccc(CN(C(=O)NCC2CCS(=O)(=O)C2)C2CC2)o1 (centres undefined)
-7.11
Cc1n[nH]c(=O)c2c(NC(=O)CN3CCCC(C(F)(F)F)C3)oc(C)c12 (centres undefined)
15.7
CN(C)C(C(=O)N1CCC(N2CCSCC2)CC1)c1ccccc1F (centres undefined)
-3.23
CC1CCN(c2cncc(CCC3CCCN3)n2)CC1 (centres undefined)
-8.58
Cc1ccc(CNC2CCCN(Cc3noc(C4CC4)n3)C2)s1 (centres undefined)
28.4
O=C1CCCN1Cc1ncn2c1CN(C(=O)Cc1cccs1)CCC2
-1.17
CC(CCSc1ccccc1)N1CCN(C(=O)c2cccs2)CC1 (centres undefined)
35.4
Cc1ccsc1CN(C)Cc1nc2c(cnn2C)c(=O)[nH]1
-7.29
Cc1ccc(CN(CCCN2CCOCC2)Cc2cncn2C)o1
-4.09
CC(C)n1nc(CN2CCOCC2)c2c1CN(C(=O)c1ccno1)C2
-4.42
CCC(C)(CC)NC(=O)COc1nn(C)c2nc(C)cc(C)c12
14.2
COCc1n[nH]/c(=N/C(=O)COc2cnc(C)cc2O)s1
-9.66
Cc1ccc(OCCCNC(=O)CN(C)c2ccc(C#N)cn2)cc1
3.18
O=C(NC1CC1)[C@H]1C[C@H]2OCC[C@H]2N(CC2CCOCC2)C1
22.7
Cn1cc(S(=O)(=O)NCc2ccc(F)cc2)cn1
-2.02
